# assayedTarget: ovine COX-1 (oCOX-1) (Ovis aries, UniProt P05979)
# Construct: purchased Cayman Chemicals (Ann Arbor, Mich.)
# Sequence (P05979 25-600): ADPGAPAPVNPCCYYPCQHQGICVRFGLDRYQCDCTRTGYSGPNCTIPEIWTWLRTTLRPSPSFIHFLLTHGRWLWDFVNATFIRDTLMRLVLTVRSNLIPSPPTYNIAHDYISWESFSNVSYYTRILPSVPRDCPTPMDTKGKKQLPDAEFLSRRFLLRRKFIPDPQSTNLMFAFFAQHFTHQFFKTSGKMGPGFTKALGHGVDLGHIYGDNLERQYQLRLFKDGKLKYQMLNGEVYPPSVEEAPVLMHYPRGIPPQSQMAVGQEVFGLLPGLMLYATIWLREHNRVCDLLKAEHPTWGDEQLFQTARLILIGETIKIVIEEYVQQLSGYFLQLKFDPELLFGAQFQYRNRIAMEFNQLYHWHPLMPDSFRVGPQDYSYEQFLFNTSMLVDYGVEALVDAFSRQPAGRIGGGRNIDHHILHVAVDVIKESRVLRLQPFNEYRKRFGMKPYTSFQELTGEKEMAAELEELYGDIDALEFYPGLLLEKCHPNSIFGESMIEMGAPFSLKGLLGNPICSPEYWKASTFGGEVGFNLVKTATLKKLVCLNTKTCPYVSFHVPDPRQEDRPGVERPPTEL
# experimentalDetails: LCMS-based COX-1 enzymatic inhibition assay (PGE2 quantification)
# Type: biochemical
# runParameters: 10 minutes; pge2 area (counts); head of this section not shown, inferred
The following compounds are shown together with reported COX1 10 minutes pge2 area (counts) Avg. LLE values.

Solved cases (4 shown):
{"columns": ["compound", "measuredResult"],
 "data": [
  ["CS(=O)(=O)c1ccc(-c2cncc(NCc3ccco3)n2)cc1", 2.724],
  ["CS(=O)(=O)c1ccc(-c2cccc(NCc3ccc[nH]3)n2)cc1", 2.127],
  ["CS(=O)(=O)c1ccc(-c2cnc3ccn(Cc4cccs4)c3n2)cc1", 2.996],
  ["C[S+]([O-])c1ccc(-c2cncc(NCc3cccs3)n2)cc1 (centres unmarked)", 2.83]
]}

Now, please, on to the next compound.
Please look at this compound and report its COX1 10 minutes pge2 area (counts) Avg. LLE: CS(=O)(=O)c1ccc(-c2cncc(OCc3ccoc3)n2)cc1 2.324
